Here, each record is paired with measured relative viability data.
# Test system: NCI-H3122
# protocol summary: relative viability (nuclei count vs DMSO), 5 days (fraction); higher = more cells survive
# study conditions: first compound 2.53 µM
Reply: number alone, nothing else.

Some molecules with known relative viability results, for comparison:
I would be grateful if you could share the reported relative viability for Oc1nc(-c2ccc(C(F)(F)F)cc2)nc2c1CSCC2 [XAV939] + CC(=O)c1c(C)c2cnc(Nc3ccc(N4CCNCC4)cn3)nc2n(C2CCCC2)c1=O [Palbociclib] (partner 0.5 µM) .
0.153

I would be grateful if you could share the reported relative viability for C=C1C(=O)O[C@@H](CCCCCCCC)[C@@H]1C(=O)O [C-75] + O=C(CCCCCCC(=O)Nc1ccccc1)NO [Vorinostat] (partner 1 µM) .
0.578

I would be grateful if you could share the reported relative viability for C=C1C(=O)O[C@@H](CCCCCCCC)[C@@H]1C(=O)O [C-75] + O=C(c1cc(Cc2n[nH]c(=O)c3ccccc23)ccc1F)N1CCN(C(=O)C2CC2)CC1 [Olaparib] (partner 8 µM) .
0.51

Now turn to the next molecule.
I would be grateful if you could share the reported relative viability for Oc1nc(-c2ccc(C(F)(F)F)cc2)nc2c1CSCC2 [XAV939] + COc1cccc2cc(-c3nc([C@H]4CC[C@H](C(=O)O)CC4)n4ncnc(N)c34)[nH]c12 [OSI-027] (partner 0.5 µM) .
0.581

* * *

# Test system: NCI-H1395
# protocol summary: relative viability (nuclei count vs DMSO), 5 days (fraction); higher = more cells survive
# study conditions: first compound 0.01581 µM
measured metric: relative viability
Reply: number alone, nothing else.

I would be grateful if you could share the reported relative viability for CC1(C)CCC(c2ccc(Cl)cc2)=C(CN2CCN(c3ccc(C(=O)NS(=O)(=O)c4ccc(N[C@H](CCN5CCOCC5)CSc5ccccc5)c(S(=O)(=O)C(F)(F)F)c4)cc3)CC2)C1 [Navitoclax] + Cc1cc(Nc2cc(N3CCN(C)CC3)nc(Sc3ccc(NC(=O)C4CC4)cc3)n2)n[nH]1 [Tozasertib] (partner 0.1 µM) .
0.738

Now turn to the next compound.
I would be grateful if you could share the reported relative viability for CC1(C)CCC(c2ccc(Cl)cc2)=C(CN2CCN(c3ccc(C(=O)NS(=O)(=O)c4ccc(N[C@H](CCN5CCOCC5)CSc5ccccc5)c(S(=O)(=O)C(F)(F)F)c4)cc3)CC2)C1 [Navitoclax] + Cc1nc(Nc2ncc(C(=O)Nc3c(C)cccc3Cl)s2)cc(N2CCN(CCO)CC2)n1 [Dasatinib] (partner 0.075 µM) .
0.42

* * *

Here, each record is paired with measured relative viability data.
# System: NCI-H23
# protocol summary: relative viability (nuclei count vs DMSO), 5 days (fraction); higher = more cells survive
# study conditions: first compound 0.8 µM

Some molecules with known relative viability results, for comparison:
I would be grateful if you could share the reported relative viability for Oc1nc(-c2ccc(C(F)(F)F)cc2)nc2c1CSCC2 [XAV939] + Nc1nc2[nH]cc(CCc3ccc(C(=O)N[C@@H](CCC(=O)O)C(=O)O)cc3)c2c(=O)[nH]1 [Pemetrexed] (partner 0.2 µM) .
0.543

I would be grateful if you could share the reported relative viability for C=C1C(=O)O[C@@H](CCCCCCCC)[C@@H]1C(=O)O [C-75] + Cc1nc(NC(=O)N2CCC[C@H]2C(N)=O)sc1-c1ccnc(C(C)(C)C(F)(F)F)c1 [Alpelisib] (partner 2 µM) .
0.565

I would be grateful if you could share the reported relative viability for Oc1nc(-c2ccc(C(F)(F)F)cc2)nc2c1CSCC2 [XAV939] + CC1(C)CCC(c2ccc(Cl)cc2)=C(CN2CCN(c3ccc(C(=O)NS(=O)(=O)c4ccc(N[C@H](CCN5CCOCC5)CSc5ccccc5)c(S(=O)(=O)C(F)(F)F)c4)cc3)CC2)C1 [Navitoclax] (partner 0.5 µM) .
0.531

Now turn to the next molecule.
I would be grateful if you could share the reported relative viability for Oc1nc(-c2ccc(C(F)(F)F)cc2)nc2c1CSCC2 [XAV939] + O=C(c1cc(Cc2n[nH]c(=O)c3ccccc23)ccc1F)N1CCN(C(=O)C2CC2)CC1 [Olaparib] (partner 8 µM) .
0.278
